Tested on: KB tumor-bearing athymic nude mice
PROCEDURE_SUMMARY: Biodistribution of 177Lu-RedFols in KB tumor-bearing mice
Type: in vivo, mouse
CONDITION_PARAMETERS: 1 h p.i.
Experimental: Athymic nude mice (Crl:CD1-Foxn^nu) were kept on a folate-deficient rodent diet (ssniff Spezialdiäten GmbH, Soest, Germany) for at least one week prior to inoculation with the tumor cells. Biodistribution studies were performed approx. two weeks after subcutaneous inoculation with KB tumor cells (5 × 10^6 in 100 μL PBS) (Supplementary Materials Section S12). […] Data were presented as the average ± SD of n = 3−4 mice. […]
Reported Blood, accumulated activity values follow for various compounds

# COMPOUND, Blood, accumulated activity
rows = [
    ("CN1c2c(nc(N)[nH]c2=O)NC[C@H]1CNc1ccc(C(=O)N[C@@H](CCC(=O)N[C@@H](CCCCNC(=O)CN2CCN(CC(=O)O)CCN(CC(=O)O)CCN(CC(=O)O)CC2)C(=O)N[C@@H](CCCCNC(=O)c2ccc(CNC(=O)CCCCc3ccc(I)cc3)cc2)C(=O)O)C(=O)O)cc1 [[^177Lu]Lu-6R-RedFol-25, metal not drawn]", "13 ± 3 % IA/g"),
    ("CN1c2c(nc(N)[nH]c2=O)NCC1CNc1ccc(C(=O)NC(CCC(=O)NC(CCCCNC(=O)CN2CCN(CC(=O)[O-])CCN(CC(=O)[O-])CCN(CC(=O)[O-])CC2)C(=O)NC(CCCCNC(=O)c2ccc(CNC(=O)CCCCc3ccc(I)cc3)cc2)C(=O)O)C(=O)O)cc1.[177Lu+3] (stereo not drawn) [[^177Lu]Lu-6S-RedFol-25]", "13 ± 2 % IA/g"),
    ("CN1c2c(nc(N)[nH]c2=O)NC[C@H]1CNc1ccc(C(=O)N[C@@H](CCC(=O)N[C@@H](CCCCNC(=O)CN2CCN(CC(=O)O)CCN(CC(=O)O)CCN(CC(=O)O)CC2)C(=O)N[C@@H](CCCCNC(=O)CCCCc2ccc(I)cc2)C(=O)O)C(=O)O)cc1 [[^177Lu]Lu-6R-RedFol-24, metal not drawn]", "9.0 ± 1.2 % IA/g"),
    ("CN1c2c(nc(N)[nH]c2=O)NCC1CNc1ccc(C(=O)NC(CCC(=O)NC(CCCCNC(=O)CN2CCN(CC(=O)[O-])CCN(CC(=O)[O-])CCN(CC(=O)[O-])CC2)C(=O)NC(CCCCNC(=O)c2ccc(CNC(=O)CCCc3ccc(I)cc3)cc2)C(=O)O)C(=O)O)cc1.[177Lu+3] (stereo not drawn) [[^177Lu]Lu-6S-RedFol-3]", "22 ± 1 % IA/g"),
    ("CN1c2c(nc(N)[nH]c2=O)NC[C@H]1CNc1ccc(C(=O)N[C@@H](CCC(=O)N[C@@H](CCCCNC(=O)CN2CCN(CC(=O)O)CCN(CC(=O)O)CCN(CC(=O)O)CC2)C(=O)N[C@@H](CCCCNC(=O)c2ccc(CNC(=O)CCCc3ccc(I)cc3)cc2)C(=O)O)C(=O)O)cc1 [[^177Lu]Lu-6R-RedFol-3, metal not drawn]", "26 ± 3 % IA/g"),
]

* * *

System: KB tumor-bearing athymic nude mice
PROCEDURE_SUMMARY: Biodistribution of 177Lu-RedFols in KB tumor-bearing mice
Assay type: in vivo, mouse
CONDITION_PARAMETERS: 24 h p.i.
REPORTED_METRIC: Bone, accumulated activity (% IA/g)

# MOLECULE, ASSAYED_SYSTEM, VALUE_UNITS, NUMERIC_RESULT
measured = [
    ("CN1c2c(nc(N)[nH]c2=O)NC[C@H]1CNc1ccc(C(=O)N[C@@H](CCC(=O)N[C@@H](CCCCNC(=O)CN2CCN(CC(=O)O)CCN(CC(=O)O)CCN(CC(=O)O)CC2)C(=O)N[C@@H](CCCCNC(=O)c2ccc(CNC(=O)CCCCc3ccc(I)cc3)cc2)C(=O)O)C(=O)O)cc1 [[^177Lu]Lu-6R-RedFol-25, metal not drawn]", "KB tumor-bearing athymic nude mice", "% IA/g", 0.50),
    ("CN1c2c(nc(N)[nH]c2=O)NCC1CNc1ccc(C(=O)NC(CCC(=O)NC(CCCCNC(=O)CN2CCN(CC(=O)[O-])CCN(CC(=O)[O-])CCN(CC(=O)[O-])CC2)C(=O)NC(CCCCNC(=O)c2ccc(CNC(=O)CCCc3ccc(I)cc3)cc2)C(=O)O)C(=O)O)cc1.[177Lu+3] (stereo not drawn) [[^177Lu]Lu-6S-RedFol-3]", "KB tumor-bearing athymic nude mice", "% IA/g", 1.2),
]
